- Assay Comment: liver microsomal metabolic stability, canine
- Assay Setup: dog, microsomes
Measured Quantity: half-life at 1 h, 1 µM (min)
Number in min, nothing else.

Noted for Cc1c(-c2ccc(N3CCc4cccc(C(=O)Nc5nc6ccccc6s5)c4C3)nc2C(=O)OCc2ccc(O[C@@H]3O[C@H](CO)[C@H](O)[C@H](O)[C@H]3O)c([N+](=O)[O-])c2)cnn1CC12CC3CC(CC(C3)C1)C2 : its half-life at 1 h, 1 µM reads 47.3

====

- Assay Comment: liver microsomal metabolic stability, mouse
- Assay Setup: microsomes
Measured Quantity: CLint scaled at 1 µM (mL/min/kg)
Number in mL/min/kg, nothing else.

Noted for Cc1c(-c2ccc(N3CCc4cccc(C(=O)Nc5nc6ccccc6s5)c4C3)nc2C(=O)OCc2ccc(O[C@@H]3O[C@H](CO)[C@H](O)[C@H](O)[C@H]3O)c([N+](=O)[O-])c2)cnn1CC12CC3CC(CC(C3)C1)C2 [Compound A13bGa1] : its CLint scaled at 1 µM reads 60.7

====

- Assay Comment: plasma metabolic stability, human
- Type: in vitro ADME
- Assay Setup: 10 μM prodrug, 120 min, read-out: The peak area after normalisation at minute 120, oxidative dehydrogenation metabolite
Measured Quantity: metabolised at 2 h, 10 µM (%)
Number in %, nothing else.

Noted for Cc1c(-c2ccc(N3CCc4cccc(C(=O)Nc5nc6ccccc6s5)c4C3)nc2C(=O)OCc2ccc(O[C@@H]3O[C@H](CO)[C@H](O)[C@H](O)[C@H]3O)c([N+](=O)[O-])c2)cnn1CC12CC3CC(CC(C3)C1)C2 : its metabolised at 2 h, 10 µM reads 0.07

====

- Assay Comment: plasma metabolic stability, canine
- Type: in vitro ADME
- Assay Setup: dog, 10 μM, 120 min, read-out: The peak area after normalisation at minute 120, initial drug
Measured Quantity: remaining at 2 h, 10 µM (%)
Number in %, nothing else.

Noted for Cc1c(-c2ccc(N3CCc4cccc(C(=O)Nc5nc6ccccc6s5)c4C3)nc2C(=O)OCc2ccc(O[C@@H]3O[C@H](CO)[C@H](O)[C@H](O)[C@H]3O)c([N+](=O)[O-])c2)cnn1CC12CC3CC(CC(C3)C1)C2 [Compound A13bGa1] : its remaining at 2 h, 10 µM reads 99.5

====

- Assay Comment: liver microsomal metabolic stability, human
- Assay Setup: microsomes
Measured Quantity: half-life at 1 h, 1 µM (min)
Number in min, nothing else.

Noted for Cc1c(-c2ccc(N3CCc4cccc(C(=O)Nc5nc6ccccc6s5)c4C3)nc2C(=O)OCc2ccc(O[C@@H]3O[C@H](CO)[C@H](O)[C@H](O)[C@H]3O)c([N+](=O)[O-])c2)cnn1CC12CC3CC(CC(C3)C1)C2 : its half-life at 1 h, 1 µM reads 13.1

====

- Assay Comment: plasma metabolic stability, mouse
- Format: in vitro ADME
- Assay Setup: 10 μM prodrug, 120 min, read-out: The peak area after normalisation at minute 120, oxidative dehydrogenation metabolite
Measured Quantity: metabolised at 2 h, 10 µM (%)
Number in %, nothing else.

Noted for Cc1c(-c2ccc(N3CCc4cccc(C(=O)Nc5nc6ccccc6s5)c4C3)nc2C(=O)OCc2ccc(O[C@@H]3O[C@H](CO)[C@H](O)[C@H](O)[C@H]3O)c([N+](=O)[O-])c2)cnn1CC12CC3CC(CC(C3)C1)C2 [Compound A13bGa1] : its metabolised at 2 h, 10 µM reads 0.04
